# Protocol Description: gradient 5% acetonitrile 3 min, to 50% in 2 min, to 85% in 15 min, held 3 min, 100 µL/min
# Experimental Context: column: Zorbax Extend-C18 2.1 x 50 mm; eluents: water / acetonitrile, 0.1% formic acid
Value Type: RP-LC retention time (s)

> print(dat)
                                    compound  reported.measurement
 1   COc1ccc(-c2nnc3n2CCN(Cc2ccc(C)o2)C3)cc1                   647
 2  CCC(C(=O)N1CCOc2ccc(C)cc21)n1cnc2nc3c(cc2c1=O)CCCC3 (stereo not given)                   950
 3  Cc1ccc(N(C)S(=O)(=O)c2cc(-c3[nH]ncc3C(=O)N(C)C)oc2C)cc1                   729
 4    CCCn1ccc2sc(C)c(C(=O)NCC3CCCCC3)c2c1=O                  1010
 5  O=C(c1ccn2c(-c3ccc(Cl)cc3)nnc2c1)N1CCN(c2ccccn2)CC1                   596
 6  COc1ccc(-c2nnc(COc3ccc(NC(=O)Cc4cccs4)cc3)o2)cc1                   900
 7  Cc1ccc(C2=NC3(CCN(C(=O)Nc4ccc5c(c4)OCO5)CC3)NC2=O)cc1                   714
 8                     O=C1CSCc2nc3ccccc3n21                   634
 9  CC(C)c1ccc(S(=O)(=O)N(CCN2CCCCC2C)CC(=O)N2CCNCC2)cc1 (stereo not given)                   610
10  CCc1noc(NC(C)=O)c1-c1ccc(C)c(S(=O)(=O)NCc2cccc(OC)c2)c1                   807

----------
# Protocol Description: gradient 5% acetonitrile 3 min, to 50% in 2 min, to 85% in 15 min, held 3 min, 100 µL/min
# Experimental Context: column: Zorbax Extend-C18 2.1 x 50 mm; eluents: water / acetonitrile, 0.1% formic acid
Value Type: RP-LC retention time (s)

> print(dat)
                                   molecule            value.type  reported.measurement
1  CCN1c2ccccc2C(=O)NC12CCN(C(=O)NCCc1ccccc1)CC2  RP-LC retention time                   773
2  Cc1nn(-c2nc(-c3ccc(Cl)cc3)cs2)c(C)c1CC(=O)N1CCN(c2ccccc2)CC1  RP-LC retention time                  1290
3  Cc1cccc(-c2noc(Cn3c(=O)n(Cc4ccccc4)c(=O)c4sccc43)n2)c1  RP-LC retention time                  1060
4  Cn1c(=O)oc2cc(-c3noc(CNC(=O)C(c4ccccc4)c4ccccc4)n3)ccc21  RP-LC retention time                   928
5  CCOC(=O)N1CCN(c2nc(F)c3c(c2F)S(=O)(=O)CCN3Cc2cccnc2)CC1  RP-LC retention time                   636
6  O=C(NC1CC1)c1ccc(N2CCC(NCc3ccc(C(F)(F)F)cc3)C2)nc1 (stereo not drawn)  RP-LC retention time                   663

(a) CC(C)CN1CCn2cc(S(=O)(=O)Nc3cccc(F)c3)cc2C1=O
(b) COc1cc(Nc2nc3ccccc3nc2NS(=O)(=O)c2ccc(NC(=O)c3ccc(C)c(OC)c3)cc2)cc(OC)c1
Among a and b , whose measured RP-LC retention time is the smaller figure? Answer by stating the label of the chosen item.
a
(a: 786 s, b: 1240 s)
